- measuredTarget: glucocorticoid receptor (Rattus norvegicus, UniProt P06536)
- Construct: from tissue; host or cells: liver cytosol of male Sprague-Dawley rats
- Sequence (P06536 whole entry): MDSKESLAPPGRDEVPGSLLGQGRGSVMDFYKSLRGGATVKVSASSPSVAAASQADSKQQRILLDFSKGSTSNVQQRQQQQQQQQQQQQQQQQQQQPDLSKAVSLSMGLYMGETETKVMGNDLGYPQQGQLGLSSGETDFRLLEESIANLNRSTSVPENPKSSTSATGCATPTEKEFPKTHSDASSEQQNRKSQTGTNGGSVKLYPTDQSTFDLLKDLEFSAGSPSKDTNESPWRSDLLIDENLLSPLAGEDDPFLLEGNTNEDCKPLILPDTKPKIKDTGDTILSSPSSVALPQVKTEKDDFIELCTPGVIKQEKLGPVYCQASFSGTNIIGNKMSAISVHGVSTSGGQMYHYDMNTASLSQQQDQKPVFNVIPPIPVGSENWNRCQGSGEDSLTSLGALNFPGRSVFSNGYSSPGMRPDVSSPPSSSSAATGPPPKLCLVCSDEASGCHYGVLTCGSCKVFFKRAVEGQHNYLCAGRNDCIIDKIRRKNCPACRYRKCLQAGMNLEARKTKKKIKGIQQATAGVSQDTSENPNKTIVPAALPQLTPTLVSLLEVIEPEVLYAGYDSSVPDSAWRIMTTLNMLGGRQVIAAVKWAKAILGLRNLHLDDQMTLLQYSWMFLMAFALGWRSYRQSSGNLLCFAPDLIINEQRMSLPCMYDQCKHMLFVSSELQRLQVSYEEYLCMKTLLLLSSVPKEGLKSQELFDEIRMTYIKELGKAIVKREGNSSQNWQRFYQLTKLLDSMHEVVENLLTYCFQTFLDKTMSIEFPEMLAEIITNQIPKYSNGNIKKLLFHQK
- protocol: Glucocorticoid receptor assay: inhibition of [3H]-dexamethasone binding, liver cytosol
- testContext: E^−8
- Protocol: The manner in which the percentage of inhibition is determined is described in “Other Tests; F-Glucocorticoid Receptor Assay”. [6,7-^3H(N)]-Dexamethasone (39 Ci/mmol) was purchased from New England Nuclear (Lachine, Québec, Canada) while unlabeled dexametasone was obtained from Steraloids (Wilton, N.H.). […] Glucocorticoid binding was measured using the dextran-coated charcoal adsorption technique. […] The radioactivity was measured in a Beckman counter at a counting efficiency of 35%.
measurementType: % Inhibition Glucocorticoid Receptor
Please state the number and follow it with the unit.

Answered examples (3):
| compound | measuredTarget | % Inhibition Glucocorticoid Receptor |
| --- | --- | --- |
| CCCC(=O)OC1(C(C)=O)CCC2C3C=C(C)C4=CC(=O)CC(C)C4(C)C3CCC21C (stereo not shown) | glucocorticoid receptor (Rattus norvegicus, UniProt P06536) | 0% |
| CCC(=O)O[C@]1(C(C)=O)CCC2C3C=C(C)C4=CC(=O)C[C@H](C)[C@]4(C)C3CC[C@@]21C (stereo partly shown) | glucocorticoid receptor (Rattus norvegicus, UniProt P06536) | 0% |
| CC(=O)[C@@]1(OC(=O)CCCCF)CCC2C3C=C(C)C4=CC(=O)CC[C@]4(C)C3CC[C@@]21C (stereo partly shown) | glucocorticoid receptor (Rattus norvegicus, UniProt P06536) | 3% |

Would you kindly look at the next entry?
Inquiry: Requested read-out % Inhibition Glucocorticoid Receptor, target or system glucocorticoid receptor (Rattus norvegicus, UniProt P06536), entry COC(=O)CCCC(=O)O[C@]1(C(C)=O)CC[C@H]2[C@@H]3C=C(C)C4=CC(=O)CC[C@]4(C)[C@H]3CC[C@@]21C
Reply text: 0%

====

- measuredTarget: estrogen receptor (Rattus norvegicus)
- Construct: from tissue; host or cells: uterine cytosol of gonadectomized female Sprague-Dawley rats
- Sequence (P06211 whole entry): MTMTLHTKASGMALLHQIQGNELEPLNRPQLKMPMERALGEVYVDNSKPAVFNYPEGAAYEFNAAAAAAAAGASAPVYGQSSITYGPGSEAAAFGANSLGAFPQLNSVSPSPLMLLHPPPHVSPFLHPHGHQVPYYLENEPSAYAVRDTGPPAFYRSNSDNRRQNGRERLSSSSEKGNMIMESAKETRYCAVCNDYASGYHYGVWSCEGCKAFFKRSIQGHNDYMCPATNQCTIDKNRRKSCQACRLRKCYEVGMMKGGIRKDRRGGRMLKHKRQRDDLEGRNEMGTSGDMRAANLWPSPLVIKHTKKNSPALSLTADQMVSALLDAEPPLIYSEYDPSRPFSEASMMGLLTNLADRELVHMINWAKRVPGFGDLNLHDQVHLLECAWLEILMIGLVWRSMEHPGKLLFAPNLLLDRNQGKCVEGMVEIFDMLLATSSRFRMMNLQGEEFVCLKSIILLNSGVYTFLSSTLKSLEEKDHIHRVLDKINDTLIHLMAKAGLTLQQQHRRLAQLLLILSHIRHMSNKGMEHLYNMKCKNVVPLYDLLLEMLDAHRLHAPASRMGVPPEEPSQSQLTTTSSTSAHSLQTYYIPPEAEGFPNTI
- protocol: Estrogen receptor (ER) assay: inhibition of [3H]E2 binding, uterine cytosol
- testContext: Table 4′; E^−6
measurementType: % Inhibition Estrogen Receptor E^−6 (%)
The reply should be a number in %, with the unit left off.

| compound | observedMeasurement |
| --- | --- |
| CN(C)C(=O)c1ccc2c(c1)CCC1C2CCC2(C)C1CCC21CCC(C)(C)C(=O)O1 (stereo not shown) [EM-1403] | 0 |
| COCCOc1cc2c(cc1Cl)C1CCC3(C)C(CCC34CCC(C)(C)C(=O)O4)C1CC2 (stereo not shown) [EM-1371-CS] | 1 |
| CC1CCC2(CCC3C4CCc5cc(O)c([N+](=O)[O-])cc5C4CCC32C)OC1=O (stereo not shown) [EM-1126] | 0 |

Inquiry: What value of % Inhibition Estrogen Receptor E^−6 has been recorded for this entry: COc1ccc2c(c1)C(=O)CC1C2CC[C@@]2(C)C1CC[C@@]21CCC(C)(C)C(=O)O1 (stereo partly shown) [EM-1394]
Reply text: 8

Inquiry: Give its % Inhibition Estrogen Receptor E^−6 value. Item: COCCOc1cc2c(cc1C(=O)OC)C1CC[C@@]3(C)C(CC[C@@]34CCC(C)(C)C(=O)O4)C1CC2 (stereo partly shown) [EM-1402-CS]
Reply text: 0

Inquiry: Can you share its % Inhibition Estrogen Receptor E^−6? I mean this compound: CC1(C)CC[C@@]2(CCC3C4CCc5cc6oncc6cc5C4CC[C@@]32C)OC1=O (stereo partly shown) [EM-1407-CS]
Reply text: 0

Inquiry: What measured % Inhibition Estrogen Receptor E^−6 goes with CC1(C)CCC2(CCC3C4CCc5cc(OCCN6CCCCC6)ccc5C4CCC32C)OC1=O (stereo not shown) [EM-1390-CS] ?
Reply text: 0

Inquiry: Which % Inhibition Estrogen Receptor E^−6 is reported for this compound? CC1(C)CC[C@@]2(CC[C@H]3[C@@H]4CCc5c(cc(Br)c(O)c5Br)[C@H]4CC[C@@]32C)OC1=O [EM-1382-CS]
Reply text: 3

Inquiry: Return reported % Inhibition Estrogen Receptor E^−6; argument: COCCOc1ccc2c(c1)CCC1C2CCC2(C)C1CCC21CCC(C)(C)C(=O)O1 (stereo not shown) [EM-1368-CS]
Reply text: 0

Inquiry: Given the compound CC1(C)CC[C@@]2(CCC3C4CCc5cc(F)ccc5C4CC[C@@]32C)OC1=O (stereo partly shown) [EM-1157-CS] , what is its reported % Inhibition Estrogen Receptor E^−6?
Reply text: 0

Inquiry: What % Inhibition Estrogen Receptor E^−6 value was documented for this compound, CCS(=O)(=O)Oc1ccc2c(c1)CCC1C2CCC2(C)C1CCC21CCC(C)(C)C(=O)O1 (stereo not shown) [EM-1364-CS] ?
Reply text: 5

Inquiry: Which value of % Inhibition Estrogen Receptor E^−6 has been reported for CC1(C)CCC2(CCC3C4CCc5cc(OS(C)(=O)=O)ccc5C4CCC32C)OC1=O (stereo not shown) [EM-1365-CS] in the records?
Reply text: 4

Inquiry: Form field: reported % Inhibition Estrogen Receptor E^−6 of CSCCOc1ccc2c(c1)CCC1C2CCC2(C)C1CCC21CCCC(=O)O1 (stereo not shown) [CS-242]
Reply text: 0
